target: T1, hCDH6aa54-615 APPavi (human, UniProt P55285 54-615)
T1 sequence: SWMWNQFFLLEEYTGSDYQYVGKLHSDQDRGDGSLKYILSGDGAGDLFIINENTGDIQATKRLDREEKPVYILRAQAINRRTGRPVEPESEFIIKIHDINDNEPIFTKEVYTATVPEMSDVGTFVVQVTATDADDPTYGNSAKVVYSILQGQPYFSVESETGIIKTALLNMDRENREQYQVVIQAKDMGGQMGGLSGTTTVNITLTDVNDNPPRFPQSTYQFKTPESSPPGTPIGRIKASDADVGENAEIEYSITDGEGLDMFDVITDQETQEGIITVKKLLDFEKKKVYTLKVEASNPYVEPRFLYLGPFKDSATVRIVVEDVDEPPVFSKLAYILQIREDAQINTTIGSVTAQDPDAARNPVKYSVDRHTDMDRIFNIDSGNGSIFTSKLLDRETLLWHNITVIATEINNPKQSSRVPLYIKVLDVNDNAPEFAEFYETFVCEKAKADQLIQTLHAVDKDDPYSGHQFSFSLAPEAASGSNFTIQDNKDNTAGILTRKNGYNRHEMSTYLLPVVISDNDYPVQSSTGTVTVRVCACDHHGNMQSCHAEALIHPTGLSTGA
experimental-details: SPR binning
Could you please report measured response of secondary antibody on primary antibody-CDH6 complex for the items listed next?
Answers are plain numbers.

// solved cases for response of secondary antibody on primary antibody-CDH6 complex follow
binder	observed-result
NOV0719 (antibody, human IgG1, kappa, V domains shown) VH: QVQLLESGGGLVQPGGSLRLSCAASGFTFSSHWVHWVRQAPGKGLEWVSVISYMGSSTYYADSVKGRFTISRDNSKNTLYLQMNSLRAEDTAVYYCARGSYDMAFDVWGQGTLVTVSS VL: DIQMTQSPSSLSASVGDRVTITCRASQSIVSYLNWYQQKPGKAPKLLIYDASSLQSGVPSRFSGSGSGTDFTLTISSLQPEDFATYYCQQSGSHSITFGQGTKVEIKR	25.4
NOV0710 (antibody, human IgG1, kappa, V domains shown) VH: QVQLLESGGGLVQPGGSLRLSCAASGFTFSSYAMSWVRQAPGKGLEWVSVIRSSGSSTYYADSVKGRFTISRDNSKNTLYLQMNSLRAEDTAVYYCARGGGYFDYWGQGTLVTVSS VL: DIQMTQSPSSLSASVGDRVTITCRASQSISLWLNWYQQKPGKAPKLLIYAASTLQSGVPSRFSGSGSGTDFTLTISSLQPEDFATYYCQQYYTSPYTFGQGTKVEIKR	15
NOV0692 (antibody, human IgG1, lambda, V domains shown) VH: QVQLVESGGGLVKPGGSLRLSCAASGFTFSRYWMDWVRQAPGKGLEWVGRIKSKANGGITDYAAPVKGRFTISRDDSKNTLYLQMNSLKTEDTAVYYCARGMTFLGIWGQGTLVTVSS VL: DIELTQPPSVSVSPGQTASITCSGDSIGSKYAQWYQQKPGQAPVLVIYYNSERPSGIPERFSGSNSGNTATLTISGTQAEDEADYYCQSWDGQSTIRVFGGGTKLTVLG	7.83
NOV1126 (antibody, human IgG1, lambda, V domains shown) VH: EVQLLESGGGLVQPGGSLRLSCAASGFTFSDHAIDWVRQAPGKGLEWVSVIAGSGSITYYADSVKGRFTISRDNSKNTLYLQMNSLRAEDTAVYYCARDTGVYREYMDVWGQGTLVTVSS VL: SYELTQPLSVSVALGQTARITCSGDAIGTKFAHWYQQKPGQAPVLVIYYDHERPSGIPERFSGSNSGNTATLTISRAQAGDEADYYCYSRASSNLVFGGGTKLTVLG	8.59
NOV0712 (antibody, human IgG1, kappa, V domains shown) VH: QVQLLESGGGLVQPGGSLRLSCAASGFTFSSHGMHWVRQAPGKGLEWVSVISGSGSNTGYADSVKGRFTISRDNSKNTLYLQMNSLRAEDTAVYYCARQWGSYAFDSWGQGTLVTVSS VL: DIQMTQSPSSLSASVGDRVTITCRASQSISSYLNWYQQKPGKAPKLLIYAVSTLQSGVPSRFSGSGSGTDFTLTISSLQPEDFATYYCQQSGTFPPTTFGQGTKVEIKR	9.51

// input: 2 binders below; output: response of secondary antibody on primary antibody-CDH6 complex for each
1. NOV1127 (antibody, human IgG1, kappa, V domains shown) VH: QVQLQQSGPGLVKPSQTLSLTCAISGDSVSSQSAAWNWIRQSPSRGLEWLGRIYYRSKWYNDYAVSVKSRITINPDTSKNQFSLQLNSVTPEDTAVYYCARERSYRDYFDYWGQGTLVTVSS VL: DIQMTQSPSSLSASVGDRVTITCRASQGIFTYLNWYQQKPGKAPKLLIYAASTLQSGVPSRFSGSGSGTDFTLTISSLQPEDFATYYCQQYYSTSLTFGQGTKVEIKR
2. NOV1132 (antibody, human IgG1, lambda, V domains shown) VH: QVQLQQSGPGLVKPSQTLSLTCAISGDSVSSQSAGWNWIRQSPSRGLEWLGRIYYRSKWYNDYAVSVKSRITINPDTSKNQFSLQLNSVTPEDTAVYYCAREKYTVSFYDFFDYWGQGTLVTVSS VL: SYELTQPLSVSVALGQTARITCSGDNIGSMTAHWYQQKPGQAPVLVIYDKNERPSGIPERFSGSNSGNTATLTISRAQAGDEADYYCQSWDDSYTSVVFGGGTKLTVLG

Result:
[16.5, 23.7]
